These measurements were taken from paper PMC3601957.

target_of_assay: T1, RapF^D194A (B. subtilis, UniProt P71002 1-381, D194A)
T1 sequence: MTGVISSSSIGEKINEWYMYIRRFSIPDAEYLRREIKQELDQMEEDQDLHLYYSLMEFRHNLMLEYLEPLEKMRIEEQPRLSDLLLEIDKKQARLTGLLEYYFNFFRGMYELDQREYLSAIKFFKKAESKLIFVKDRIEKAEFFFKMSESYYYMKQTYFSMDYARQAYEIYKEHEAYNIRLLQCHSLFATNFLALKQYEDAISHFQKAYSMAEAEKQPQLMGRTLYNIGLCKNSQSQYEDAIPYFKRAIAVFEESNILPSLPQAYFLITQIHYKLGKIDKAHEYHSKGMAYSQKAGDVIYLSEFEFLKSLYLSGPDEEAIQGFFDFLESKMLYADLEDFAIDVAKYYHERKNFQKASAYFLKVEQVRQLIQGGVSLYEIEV
observed_property: Kd

[in] For the binder QRGMI (mature active form of the PhrF precursor; The purchase from Genescript is stated for the crystallisation; no other source is named; also called PhrF peptide; source: bought: Genescript) [PhrF] , what Kd is on record?
[out] > 1200 µM
